- EXPERIMENTAL_TARGET: rat α1β2γ2L type GABAA receptors expressed in Xenopus laevis oocytes (Rattus norvegicus (Rat), UniProt P62813+P63138, INS375LLRMFSFK)
- RUN_DESCRIPTION: Oocyte electrophysiology: potentiation of chloride currents mediated by 2 μM GABA, and direct gating
- Assay type: cell-based
- CONDITION_SUMMARY: direct current gated by 10 μM compound in the absence of GABA; N≥4; ± SEM
READOUT: (gating) 10 μM, ratio of compound only current/2 μM GABA current
Answer with the value's number alone.

> print(dat)
                                   molecule  numeric.value
1  COC[C@]12CC[C@@H](O)C[C@@H]1CC[C@H]1[C@@H]3CC[C@H](OC)[C@@]3(C)CC[C@@H]12           0.22
2  COC[C@]12CCC(=O)C=C1CC[C@@H]1[C@@H]2CC[C@]2(C)[C@@H](OC)CC[C@@H]12           0.11
3  COC[C@]12CC[C@@H](O)CC1=CC[C@@H]1[C@@H]2CC[C@]2(C)[C@@H](OC)CC[C@@H]12           0.08
4  COC[C@]12CC[C@H](O)C[C@@H]1CC[C@H]1[C@@H]3CC[C@H](OC)[C@@]3(C)CC[C@@H]12           0.02

Request: Dear colleague, I am looking for the recorded (gating) 10 μM, ratio of compound only current/2 μM GABA current of the following molecule: COC[C@]12CCC(O)CC1CC[C@@H]1[C@@H]2CC[C@]2(C)C(=O)CC[C@@H]12 (stereo in doubt)
Response: 0.03

Request: Entry `COC[C@]12CC[C@H](O)CC1=CC[C@@H]1[C@@H]2CC[C@]2(C)[C@@H](OC)CC[C@@H]12` please
Response: 0.02

----------
Form field: oocyte electrophysiology, ratio of currents in presence/absence of compound, 1 μM (one value per entry).
- EXPERIMENTAL_TARGET: rat α1β2γ2L type GABAA receptors expressed in Xenopus laevis oocytes (Rattus norvegicus (Rat), UniProt P62813+P63138, INS375LLRMFSFK)
- RUN_DESCRIPTION: Oocyte electrophysiology: potentiation of chloride currents mediated by 2 μM GABA, and direct gating
- Type: cell-based
- CONDITION_SUMMARY: 1 μM compound; 2 μM GABA control; N≥4 oocytes; ± SEM
Respond using a number only.

Solved cases below.
> print(dat)
                                   molecule  numeric.value
1  COC[C@]12CC[C@@H](O)C[C@@H]1CC[C@H]1[C@@H]3CC[C@H](C(=O)CO)[C@@]3(C)CC[C@@H]12           2.76
2  COC[C@]12CC[C@@H](O)CC1=CC[C@@H]1[C@@H]2CC[C@]2(C)[C@@H](OC)CC[C@@H]12           1.97
3  COC[C@]12CC[C@H](O)C[C@@H]1CC[C@H]1[C@@H]3CC[C@H](OC)[C@@]3(C)CC[C@@H]12           0.97
4  COC[C@]12CC[C@H](O)CC1=CC[C@@H]1[C@@H]2CC[C@]2(C)[C@@H](OC)CC[C@@H]12           0.76
5  COC[C@]12CC[C@@H](O)C[C@@H]1CC[C@H]1[C@@H]3CC[C@H](OC)[C@@]3(C)CC[C@@H]12           7.63

Request: Entry `COC[C@]12CC[C@@H](O)C[C@@H]1CC[C@@H]1[C@@H]2CC[C@@]2(C)[C@H]1CC[C@@]21CO1` has what oocyte electrophysiology, ratio of currents in presence/absence of compound, 1 μM?
Response: 7.40

Request: Can you check `COC[C@]12CCC(=O)C=C1CC[C@@H]1[C@@H]2CC[C@]2(C)[C@@H](OC)CC[C@@H]12` next?
Response: 0.63

Request: Proceed to `COC[C@]12CC[C@@H](O)C[C@@H]1CC[C@H]1[C@@H]3CC[C@H]([N+](=O)[O-])[C@@]3(C)CC[C@@H]12`
Response: 15.7

Request: Record: `COC[C@]12CCC(=O)C[C@@H]1CC[C@H]1[C@@H]3CC[C@H](OC)[C@@]3(C)CC[C@@H]12`
Response: 0.85

Request: Consider next the molecule `COC[C@]12CC[C@@H](O)C[C@@H]1CC[C@@H]1[C@@H]2CC[C@]2(C)C(C#N)=CC[C@@H]12` in the same way.
Response: 5.34

// data source = patent US20260034146A1
